Origin of values: patent US8871753B2

- assayedTarget: human JAK3 (a.a. 781-1124) (Homo sapiens, UniProt P52333)
- Construct: JAK3 (a.a. 781-1124); His tag (N); made in house; host or cells: insect cells (baculovirus)
- Sequence (P52333 781-1124): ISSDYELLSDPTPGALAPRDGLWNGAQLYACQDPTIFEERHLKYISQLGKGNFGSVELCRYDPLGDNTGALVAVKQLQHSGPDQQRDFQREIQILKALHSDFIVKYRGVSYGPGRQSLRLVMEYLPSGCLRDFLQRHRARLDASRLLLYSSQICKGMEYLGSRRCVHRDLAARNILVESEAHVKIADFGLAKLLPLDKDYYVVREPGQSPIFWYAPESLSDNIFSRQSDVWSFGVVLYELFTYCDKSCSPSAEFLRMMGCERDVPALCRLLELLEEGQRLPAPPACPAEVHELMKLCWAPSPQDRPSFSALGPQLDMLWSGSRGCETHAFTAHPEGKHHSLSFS
- protocolSummary: In vitro JAK kinase assay (HTRF, phosphorylation of a biotinylated peptide), JAK3
- Assay type: biochemical
- testConditions: Table B1
Counter-ions that a name gives are not always drawn.
Measured pIC50 values are reported for all entries that follow.
API: returns pIC50 as number; meaning -log10 of concentration in mol/L.

O=C(Nc1cc2cc(c1)Nc1nc(ncc1Cl)Nc1cccc(c1)CC2)c1nccs1 [Example B209, trifluoroacetate]
6.85
CS(=O)(=O)NCCNC(=O)Nc1ccc2cc1CCc1cccc(c1)Nc1ncc(Cl)c(n1)N2 [Example B187, trifluoroacetate]
8.62
O=C(Nc1ccc2cc1CCc1cccc(c1)Nc1ncc(Cl)c(n1)N2)c1ccc(Cl)cc1 [Example B43, hydrochloride]
8.17
O=C(NCCNC(=O)c1ccccc1)Nc1ccc2cc1CCc1cccc(c1)Nc1ncc(Cl)c(n1)N2 [Example B189, trifluoroacetate]
7.46

Attention now turns to another entry.
Recorded result, O=C(NCCN1CCCC1=O)Nc1ccc2cc1CCc1cccc(c1)Nc1ncc(Cl)c(n1)N2 [Example B257, trifluoroacetate] , pIC50: 7.19

====

Measured log10 of IC50 values are reported for all entries that follow.
- assayedTarget: TYK2 (Homo sapiens)
- protocolSummary: TYK2 kinase inhibition (Table A1)
- Assay type: biochemical
Structures can show the parent of a compound that is named as a salt.
A difference of one corresponds to tenfold IC50; all values are log10 with IC50 in nM.

CC(=O)N1CCC(C(=O)Nc2ccc3cc2CCc2cccc(c2)Nc2ncc(Cl)c(n2)N3)CC1 [Example A29, trifluoroacetate]
1.81
N#Cc1ccc(NC(=O)N2CCN(C(=O)COc3ccc4cc3CCc3cccc(c3)Nc3ncc(Cl)c(n3)N4)CC2)cc1 [Example A9, trifluoroacetate]
1.34
CC(C)NC(=O)N1CCC(CC(=O)Nc2ccc3cc2CCc2cccc(c2)Nc2ncc(Cl)c(n2)N3)CC1 [Example A84, trifluoroacetate]
1.20

Recorded result, N#CCC(=O)Nc1ccc2cc1CCc1cccc(c1)Nc1ncc(Cl)c(n1)N2 [Example A65, trifluoroacetate] , log10 of IC50: 1.23

Recorded result, COc1ccc(NC(=O)N2CCC(CC(=O)Nc3ccc4cc3CCc3cncc(c3)Nc3ncc(Cl)c(n3)N4)CC2)cc1 [Example A154, bis(trifluoroacetate)] , log10 of IC50: 0.49

====

Measured IC50 values are reported for all entries that follow.
- assayedTarget: human JAK2 (a.a. 828-1132) (Homo sapiens)
- Construct: JAK2 (a.a. 828-1132); His tag (N); made in house; host or cells: insect cells (baculovirus)
- Sequence (O60674 828-1132): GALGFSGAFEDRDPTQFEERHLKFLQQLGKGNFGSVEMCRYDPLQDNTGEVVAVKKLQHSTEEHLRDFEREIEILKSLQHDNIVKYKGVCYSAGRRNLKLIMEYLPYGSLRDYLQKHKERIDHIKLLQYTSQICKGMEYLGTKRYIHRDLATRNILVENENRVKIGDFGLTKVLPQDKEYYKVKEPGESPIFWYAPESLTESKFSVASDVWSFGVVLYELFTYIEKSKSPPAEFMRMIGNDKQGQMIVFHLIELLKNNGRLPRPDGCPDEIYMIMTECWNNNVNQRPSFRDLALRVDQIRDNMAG
- protocolSummary: In vitro JAK kinase assay (HTRF, phosphorylation of a biotinylated peptide), JAK2
- Format: biochemical
- testConditions: Table B1
Counter-ions that a name gives are not always drawn.

# annotated cases, reported IC50 shown
CNCc1ccc2cc1CCc1cncc(c1)Nc1ncc(Cl)c(n1)N2 [Example B334, trihydrochloride]
199 nM
O=C(Nc1ccc2cc1CCc1cncc(c1)Nc1ncc(Cl)c(n1)N2)N1CCN(c2ncc(C(F)(F)F)cc2Cl)CC1 [Example B302, tris(trifluoroacetate)]
> 400 nM
NS(=O)(=O)c1cc2cc(c1)Nc1nc(ncc1Br)Nc1cccc(c1)CC2 [Example B18, trifluoroacetate]
23 nM

Attention now turns to another entry.
Recorded result, O=C(NCCN1CCCC1)Nc1ccc2cc1CCc1cccc(c1)Nc1ncc(Cl)c(n1)N2 [Example B255, bis(trifluoroacetate)] , IC50: 14 nM

====

Measured IC50 values are reported for all entries that follow.
- assayedTarget: human JAK2 (a.a. 828-1132) (Homo sapiens)
- Construct: JAK2 (a.a. 828-1132); His tag (N); made in house; host or cells: insect cells (baculovirus)
- protocolSummary: In vitro JAK kinase assay (HTRF, phosphorylation of a biotinylated peptide), JAK2
- Format: biochemical
- testConditions: Table B1
Where a name gives a salt, the structure may show the parent alone.
Provide only the numeric value, understood in nM.

# annotated cases, reported IC50 shown
Cc1csc(NC(=O)Nc2ccc3cc2CCc2cccc(c2)Nc2ncc(Cl)c(n2)N3)n1
8.6
O=C(Nc1ccc2cc1CCc1cccc(c1)Nc1ncc(Cl)c(n1)N2)N[C@H]1CCN(C(=O)c2cccnc2)C1 [Example B171, bis(trifluoroacetate)]
12
O=C(Nc1ccc2cc1CCc1cccc(c1)Nc1ncc(Cl)c(n1)N2)c1nccs1 [Example B52, trifluoroacetate]
1.8
CCC(C)c1ccccc1NC(=O)Nc1ccc2cc1CCc1cccc(c1)Nc1ncc(Cl)c(n1)N2 (stereo not shown) [Example B126, trifluoroacetate]
20
O=C(Nc1ccc2cc1CCc1cccc(c1)Nc1ncc(Cl)c(n1)N2)N[C@H]1CCN(c2ncccn2)C1 [Example B262, bis(trifluoroacetate)]
4.7

Recorded result, CC(=O)N1CCN(Cc2ccc3cc2CCc2cccc(c2)Nc2ncc(Cl)c(n2)N3)CC1 [Example B225, bis(trifluoroacetate)] , IC50: 10

Recorded result, O=C(NCCNS(=O)(=O)c1ccc(Cl)s1)Nc1ccc2cc1CCc1cccc(c1)Nc1ncc(Cl)c(n1)N2 [Example B330, trifluoroacetate] , IC50: 6.1

Recorded result, O=C(Nc1ccc(Cl)cc1)c1cc2cc(c1)Nc1nc(ncc1Cl)Nc1cccc(c1)CC2 [Example B15, trifluoroacetate] , IC50: 111

Recorded result, O=C(Nc1cc2cc(c1)Nc1nc(ncc1Cl)Nc1cccc(c1)CC2)c1nccs1 [Example B209, trifluoroacetate] , IC50: 51

Recorded result, CCOC(=O)c1coc(Nc2ccc3cc2CCc2cccc(c2)Nc2ncc(Cl)c(n2)N3)n1 [Example B278, bis(trifluoroacetate)] , IC50: 126

Recorded result, COc1ccc(C(=O)Nc2ccc3cc2CCc2cccc(c2)Nc2ncc(Cl)c(n2)N3)cc1 [Example B67, trifluoroacetate] , IC50: 1.9

Recorded result, N#Cc1ccccc1S(=O)(=O)Nc1ccc2cc1CCc1cccc(c1)Nc1ncc(Cl)c(n1)N2 [Example B155, trifluoroacetate] , IC50: 2.4

Recorded result, O=C(Nc1ccc2cc1CCc1cncc(c1)Nc1ncc(Cl)c(n1)N2)N[C@H]1CCN(C(=O)c2ccno2)C1 [Example B271, bis(trifluoroacetate)] , IC50: 440

====

- assayedTarget: TYK2 (Homo sapiens, UniProt P29597)
- Sequence (P29597 whole entry): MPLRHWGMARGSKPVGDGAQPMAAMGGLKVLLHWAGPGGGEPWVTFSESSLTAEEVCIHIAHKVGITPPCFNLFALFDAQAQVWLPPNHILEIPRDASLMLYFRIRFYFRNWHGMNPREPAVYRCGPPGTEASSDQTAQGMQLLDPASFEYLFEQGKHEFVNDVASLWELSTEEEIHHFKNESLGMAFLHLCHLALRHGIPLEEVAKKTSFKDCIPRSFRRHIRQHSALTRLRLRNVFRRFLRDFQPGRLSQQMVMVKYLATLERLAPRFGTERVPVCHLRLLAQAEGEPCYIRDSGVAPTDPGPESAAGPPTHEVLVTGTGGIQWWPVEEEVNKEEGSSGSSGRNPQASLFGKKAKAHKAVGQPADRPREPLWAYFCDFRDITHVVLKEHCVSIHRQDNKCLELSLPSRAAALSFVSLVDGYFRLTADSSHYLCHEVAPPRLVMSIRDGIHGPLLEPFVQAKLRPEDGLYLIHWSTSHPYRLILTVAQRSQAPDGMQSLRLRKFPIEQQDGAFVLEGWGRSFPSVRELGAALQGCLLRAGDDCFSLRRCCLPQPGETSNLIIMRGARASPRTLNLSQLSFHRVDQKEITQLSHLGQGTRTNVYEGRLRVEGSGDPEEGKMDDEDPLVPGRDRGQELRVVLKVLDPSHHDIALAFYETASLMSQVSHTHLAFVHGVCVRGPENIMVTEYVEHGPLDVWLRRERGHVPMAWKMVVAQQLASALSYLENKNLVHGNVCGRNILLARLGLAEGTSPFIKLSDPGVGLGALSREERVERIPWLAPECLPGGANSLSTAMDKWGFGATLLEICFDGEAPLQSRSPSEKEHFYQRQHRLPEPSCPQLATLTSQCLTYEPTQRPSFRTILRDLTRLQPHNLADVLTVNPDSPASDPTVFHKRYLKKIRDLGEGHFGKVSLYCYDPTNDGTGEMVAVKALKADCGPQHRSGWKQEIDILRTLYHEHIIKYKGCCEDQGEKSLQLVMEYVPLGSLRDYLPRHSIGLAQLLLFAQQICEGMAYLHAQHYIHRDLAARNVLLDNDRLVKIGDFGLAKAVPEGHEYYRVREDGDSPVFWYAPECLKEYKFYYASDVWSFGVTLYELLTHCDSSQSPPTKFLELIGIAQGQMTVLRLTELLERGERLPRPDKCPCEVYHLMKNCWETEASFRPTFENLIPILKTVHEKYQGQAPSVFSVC
- protocolSummary: TYK2 kinase inhibition (Table A1)
- Type: biochemical
Counter-ions that a name gives are not always drawn.
assayMetric: pIC50
API: returns pIC50 as number; meaning -log10 of concentration in mol/L.

Recorded result, CN(C)C(=O)N1CCC(CC(=O)Nc2ccc3cc2CCc2cccc(c2)Nc2ncc(Cl)c(n2)N3)CC1 [Example A80, trifluoroacetate] , pIC50: 8.28

Recorded result, Clc1cnc2nc1Nc1ccc(OC3CCCC3)c(c1)CCc1cccc(c1)N2 [Example A14, trifluoroacetate] , pIC50: 6.94

Recorded result, O=C(c1cccnc1)N1Cc2cccc(c2)Nc2ncc(Cl)c(n2)Nc2cccc1c2 , pIC50: 6.30

Recorded result, O=C(CCC1CCNCC1)Nc1ccc2cc1CCc1cccc(c1)Nc1ncc(Cl)c(n1)N2 [Example A116, bis(trifluoroacetate)] , pIC50: 7.48

====

- assayedTarget: human JAK1 (a.a. 837-1142) (Homo sapiens, UniProt P23458)
- Construct: human JAK1 (a.a. 837-1142); His tag (N); made in house; host or cells: insect cells (baculovirus)
- Sequence (P23458 849-1154): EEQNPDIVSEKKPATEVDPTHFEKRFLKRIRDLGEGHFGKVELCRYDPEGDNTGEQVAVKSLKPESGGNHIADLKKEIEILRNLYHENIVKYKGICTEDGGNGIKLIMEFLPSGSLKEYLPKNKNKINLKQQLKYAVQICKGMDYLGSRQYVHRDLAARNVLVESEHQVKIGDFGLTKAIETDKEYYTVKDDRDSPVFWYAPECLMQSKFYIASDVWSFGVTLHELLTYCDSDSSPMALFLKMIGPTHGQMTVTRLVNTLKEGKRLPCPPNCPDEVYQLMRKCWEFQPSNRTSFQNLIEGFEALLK
- protocolSummary: In vitro JAK kinase assay (HTRF, phosphorylation of a biotinylated peptide), JAK1
- Assay type: biochemical
- testConditions: Table D1; read-out: JAK1 IC50
Where a name gives a salt, the structure may show the parent alone.
Mark each entry 1 (yes) if its IC50 sits below 0.06 µM, and 0 (no) for all others.

Example entries and their recorded answers appear below.
O=C(Nc1cccc(C(F)(F)F)c1)N1CCN(c2ccc3cc2CCc2cccc(c2)Nc2ncc(Cl)c(n2)N3)CC1 [Example D91, bis(trifluoroacetate)]
0 (no)
O=C1c2ccccc2C(=O)N1CCS(=O)(=O)Nc1ccc2cc1CCc1cncc(c1)Nc1ncc(Cl)c(n1)N2 [Example D210, bis(trifluoroacetate)]
1 (yes)
Clc1cnc2nc1Nc1cccc(c1)CSCc1cccc(c1)N2 [Example D20, trifluoroacetate]
1 (yes)

input: State whether 0.06 µM exceeds IC50 recorded for Clc1cnc2nc1Nc1cccc(c1)OCCc1cc(cc(-c3ccncc3)c1)N2 [Example D25, bis(trifluoroacetate)] .
output: 1 (yes)

====

Measured pIC50 values are reported for all entries that follow.
- assayedTarget: human JAK3 (a.a. 781-1124) (Homo sapiens, UniProt P52333)
- Construct: JAK3 (a.a. 781-1124); His tag (N); made in house; host or cells: insect cells (baculovirus)
- protocolSummary: In vitro JAK kinase assay (HTRF, phosphorylation of a biotinylated peptide), JAK3
- Assay type: biochemical
- testConditions: Table B1
Structures can show the parent of a compound that is named as a salt.
API: returns pIC50 as number; meaning -log10 of concentration in mol/L.

O=C(Nc1ccc2cc1CCc1cccc(c1)Nc1ncc(Cl)c(n1)N2)N[C@H]1CCN(C(=O)C2CC2)C1 [Example B228, trifluoroacetate]
7.20
CCS(=O)(=O)NCCNC(=O)Nc1ccc2cc1CCc1cccc(c1)Nc1ncc(Cl)c(n1)N2 [Example B325, trifluoroacetate]
8.19
O=C(Nc1ccc(Cl)cc1)Nc1ccc2cc1CCc1cccc(c1)Nc1ncc(Cl)c(n1)N2 [Example B86, trifluoroacetate]
7.57

Recorded result, O=C(Nc1nccs1)Nc1ccc2cc1CCc1cccc(c1)Nc1ncc(Cl)c(n1)N2 [Example B245, trifluoroacetate] , pIC50: 7.70

Recorded result, CC(C)(C)OC(=O)N1CC[C@H](NCc2ccc3cc2CCc2cccc(c2)Nc2ncc(Cl)c(n2)N3)C1 [Example B220, bis(trifluoroacetate)] , pIC50: 7.44
